- Tested on: A549 NSCLC
- methodNotes: NCI tumour cell line growth inhibition, 48 h
Where a SMILES comes first, the peptide text is derived from it.
property: TGI (µM)

compound | property | operatorSymbol | measurement
CCCCN1C(=O)c2c(Br)sc(Br)c2C1=O | TGI | = | 70.3
Cc1[nH]c(=O)[nH]c(=O)c1/C=C/C(=O)NC(CO)CS(=O)CS(C)=O (centres undefined) | TGI | = | 332
Cn1c(=O)nc2n(-c3ccc(Cl)cc3)c3cc(Cl)ccc3nc-2c1=O | TGI | = | 33
NC(=O)C1CCCN1C(=O)C(N)Cc1ccccc1 (stereo not drawn) (H-Phe-Pro-NH2; configuration not given here) | TGI | > | 100
CCCCCCCCCCCCCCCCCCNc1ccn(C2OC(CO)C(OP(=O)(O)OCC(O)COP(=O)(O)OCC3OC(n4cc(F)c(NCCCCCCCCCCCCCCCCCC)nc4=O)CC3O)C2O)c(=O)n1 (centres undefined) | TGI | > | 50
CC[C@@]1(O)C(=O)OCc2c1cc1n(c2=O)Cc2cc3ccccc3nc2-1 | TGI | = | 2.51
CSc1nn(C)cc2ncnc1-2 | TGI | > | 100
O=C(OCCCl)C1OC(n2cc(F)c(=O)[nH]c2=O)CC1O (centres undefined) | TGI | > | 100
CC(C)(C)CC(C)(C)c1ccc(O)c(Cc2ccc(Cl)cc2Cl)c1 | TGI | = | 2.83
